The values you see were collected from paper doi:10.1101/2021.06.15.448479v1.

# Assay System: ACER3 (Homo sapiens, UniProt Q9NUN7)
# Sequence (Q9NUN7 whole entry): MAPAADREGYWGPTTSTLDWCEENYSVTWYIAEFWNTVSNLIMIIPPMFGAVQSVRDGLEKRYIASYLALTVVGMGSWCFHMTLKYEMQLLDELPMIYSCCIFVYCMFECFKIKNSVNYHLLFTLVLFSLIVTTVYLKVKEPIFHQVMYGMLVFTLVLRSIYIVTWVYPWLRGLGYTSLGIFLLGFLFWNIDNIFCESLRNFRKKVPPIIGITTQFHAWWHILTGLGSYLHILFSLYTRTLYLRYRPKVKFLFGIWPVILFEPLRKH
# Measurement Notes: FRETcer1 hydrolysis, FRET, crude membranes of overexpressing Sf9 cells
# Assay type: cell-based
Recorded Endpoint: IC50 (µM)
The figure you give is taken to be in µM; do not add the unit.

* O=C(Nc1cnn(C2CCC2)c1)N1CCC(c2cccc(F)c2)CC1 [Z2956776388] | 1.04
* CCCC(C)NC(=O)c1ccc(Cl)c(Cl)c1 (stereo not shown) [NSC405020] | 5.29
* CCCCNC(=O)Cc1noc(C(C)c2cccc(O)c2)n1 (stereo not shown) [Z3016340412] | 1.21

Pending compound:
Query: Find the recorded IC50 belonging to Cc1noc(CCNC(=O)N2CCC(c3ccc(F)c(F)c3)CC2)n1 [Z1124621112] and report it.
Result: 1.31

----------
# Assay System: ACER3 (Homo sapiens)
# Measurement Notes: biochemical
Recorded Endpoint: pIC50
Bear in mind: pIC50 is minus log10 of a mol/L concentration; give just that figure.

Previously resolved entries follow.
- CCCCCC/C=C\CCCCCCCC(=O)O: 5.72
- CCCCC/C=C\C/C=C\CCCCCCCC(=O)O: 5.82
- CCCCCCCC/C=C\CCCCCCCC(=O)O: 5.64
- CCCCCCCCCCCCCC(=O)O: 5.03
- CCCCCCCCCCCCCCCCCC(=O)O: 4.53

Query: Can you share its pIC50? I mean this compound: `CCCCCCCCCCCCCCCC(=O)O`
Result: 4.90
